SYSTEM_TESTED: HLA-B*0702 (human)
MEASUREMENT_NOTES: iTopia affinity
VALUE_TYPE: ED50 (µM)
Report as a plain number; the unit µM is understood.

VPDSLYVPF [cdr2 275-283 VPDSLYVPF]    47

Prompt: Name the recorded ED50 for TGAYRARAL [cdr2 240-248 TGAYRARAL] .
Completion: 5.7

Prompt: Name the recorded ED50 for TSRAAAKDL [cdr2 381-389 TSRAAAKDL] .
Completion: 18

Prompt: Name the recorded ED50 for HLKKTVTML [cdr2 197-205 HLKKTVTML] .
Completion: 99

meta.source: patent US20090208538A1
